Each recorded value in this set is attributed to paper PMC11758220.

Below, each of the compounds is paired with its reported inhibition at 10 µM value.
molecular target: ORP2 (Homo sapiens, UniProt Q9H1P3); construct: ORP2(49-480); host or cells: E. coli BL21(DE3); experiment: Fluorescence polarisation (FP) competition with NBD-cholesterol, ORP2; assay type: binding; conditions: single dose, Dose = 10 µM
Sequence (Q9H1P3 49-480): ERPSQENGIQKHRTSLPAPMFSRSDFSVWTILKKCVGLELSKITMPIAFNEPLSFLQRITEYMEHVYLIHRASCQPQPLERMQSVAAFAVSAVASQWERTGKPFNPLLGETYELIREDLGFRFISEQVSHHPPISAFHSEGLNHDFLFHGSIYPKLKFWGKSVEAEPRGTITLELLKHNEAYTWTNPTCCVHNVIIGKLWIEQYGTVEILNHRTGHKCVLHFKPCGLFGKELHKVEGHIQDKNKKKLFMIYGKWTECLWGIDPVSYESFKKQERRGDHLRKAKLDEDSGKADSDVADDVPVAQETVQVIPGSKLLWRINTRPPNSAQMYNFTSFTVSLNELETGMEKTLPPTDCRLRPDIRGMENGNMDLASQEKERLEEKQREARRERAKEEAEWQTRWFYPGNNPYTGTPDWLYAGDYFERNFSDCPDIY
Reported Endpoint: inhibition at 10 µM (%)

| Compound | Target System | Measurement Unit | Value Observed |
| --- | --- | --- | --- |
| C[C@]12CC[C@@H](O)C[C@H]1CCC[C@]21NC(=O)c2ccc(F)cc2N1 [Compound 5b] | ORP2 (Homo sapiens, UniProt Q9H1P3) | % | 7 |
| Cc1ccc2c(c1)[C@@]13CC[C@@H]4C[C@@H](CC[C@@]41C)OC3=N2 [Compound 15e] | ORP2 (Homo sapiens, UniProt Q9H1P3) | % | 38 |
| CC12CCC3CC1CCC21C(=Nc2c(Br)cc(C(F)(F)F)cc21)O3 (centres unmarked) [Compound 15h] | ORP2 (Homo sapiens, UniProt Q9H1P3) | % | 49 |
| Cc1ccc2c(c1)[C@]1(O)CC[C@@H]3C[C@H](O)CC[C@]3(C)C1=N2 [Compound 14a] | ORP2 (Homo sapiens, UniProt Q9H1P3) | % | 53 |
| C[C@]12CC[C@@H]3C[C@H]1CC[C@@]21C(=Nc2ccc(C(F)(F)F)cc21)O3 [Compound 15g] | ORP2 (Homo sapiens, UniProt Q9H1P3) | % | 60 |
| C[C@@]12CC[C@H]3C[C@@H]1CC[C@]21C(=Nc2ccc(Br)cc21)O3 [(−)-15b] | ORP2 (Homo sapiens, UniProt Q9H1P3) | % | 60 |
| Cc1cc2nc3c(nc2cc1C)[C@@]1(C)CC[C@@H](O)C[C@H]1CC3 [Compound 7b] | ORP2 (Homo sapiens, UniProt Q9H1P3) | % | 12 |
| CC12CCC3CC1CCC21C(=Nc2ccc(Br)cc21)O3 (single isomer, unassigned; (+)) [(+)-15b] | ORP2 (Homo sapiens, UniProt Q9H1P3) | % | 35 |

---

molecular target: Aster-A (Homo sapiens, UniProt Q96CP6); construct: Aster-A(359-547); GST (PreScission-cleavable) (N, cleaved yes); made in house; host or cells: E. coli OverExpress C41; experiment: Fluorescence polarisation (FP) competition with NBD-cholesterol, Aster-A; assay type: binding; conditions: single dose, Dose = 10 µM
Sequence (Q96CP6 359-547): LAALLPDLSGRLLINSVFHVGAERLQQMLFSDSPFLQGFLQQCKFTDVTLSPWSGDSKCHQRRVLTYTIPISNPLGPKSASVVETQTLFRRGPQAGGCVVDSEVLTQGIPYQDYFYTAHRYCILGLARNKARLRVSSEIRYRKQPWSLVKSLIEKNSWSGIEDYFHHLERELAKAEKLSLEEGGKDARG
Below, each of the compounds is paired with its reported Aster-A (FP) inhibition value.

| Compound | Target System | Aster-A (FP) inhibition, % |
| --- | --- | --- |
| CC12CCC3CC1CCC21C(=Nc2ccc(N4CCOCC4)cc21)O3 (single isomer, unassigned; (+)) [(+)-19a] | Aster-A (Homo sapiens, UniProt Q96CP6) | 12 |
| C[C@]12CC[C@@H](O)C[C@H]1CCc1c2nc2ccc(Cl)cc2c1-c1ccccc1 [Compound 2e] | Aster-A (Homo sapiens, UniProt Q96CP6) | -4 |
| C[C@]12CC[C@@H](O)C[C@H]1CCC[C@]21NC(=O)c2ccccc2N1 [Compound 5a] | Aster-A (Homo sapiens, UniProt Q96CP6) | -2 |
| Cc1nc2c(s1)CC[C@@H]1C[C@H](O)CC[C@]21C [Compound 8b] | Aster-A (Homo sapiens, UniProt Q96CP6) | -1 |
| C[C@]12CC[C@@H](O)C[C@H]1CCc1nc3cc(F)c(F)cc3nc12 [Compound 7c] | Aster-A (Homo sapiens, UniProt Q96CP6) | -1 |
| Cc1c2c(nc3cc(Br)ccc13)[C@@]1(C)CC[C@@H](O)C[C@H]1CC2 [Compound 2c] | Aster-A (Homo sapiens, UniProt Q96CP6) | -1 |
| CCCCCN(c1ccc2c(c1)[C@@]13CC[C@@H]4C[C@@H](CC[C@@]41C)OC3=N2)c1ccc2c(c1)[C@@]13CC[C@@H]4C[C@@H](CC[C@@]41C)OC3=N2 [Compound 20b] | Aster-A (Homo sapiens, UniProt Q96CP6) | 2 |
| C[C@]12CC[C@@H](O)C[C@H]1CCc1c2nc2ccccc2c1-c1ccccc1 [Compound 2b] | Aster-A (Homo sapiens, UniProt Q96CP6) | -2 |
